Source listed as patent US20170101466A1.

biological target: T1, soluble mouse BLyS (mouse, UniProt Q9WU72 127-309); test: Biacore, antibody captured on chip, BLyS injected, 1:1 model, 25 C
T1 construct: europium-labelled in DELFIA; also called mBLyS; mouse BAFF (BLyS)
experimentalReadout: Kd (nM)
State just the number; it will be interpreted in nM.

INSERT INTO assay_data (binder, experimentalreadout, reportedresult) VALUES
  ('6C10 IgG1 F243A/V264A double mutein expressed in Pichia pastoris (antibody, V domains shown, IgG1 F243A/V264A (EU) double mutein, alpha-2,6-sialylated, from glycoengineered Pichia pastoris; also called 6C10-DM; 6C10-DM (Pichia)) VH: EVQLVQSGAEVKKPGASVKVSCKASGYTFTSYGISWVRQAPGQGLEWMGWISAYNGNTNYAQKLQGRVTMTTDTSTSTAYMELRSLRSDDTAVYYCARTYYDILTGYYYYYGMDVWGQGTTVTVSS VL: EIVLTQSPGTLSLSPGERAMLSCRASQSVGNYLAWYQQKPGQAPRLLIYDASNRATGIPARFSGSGSGTDFTLTINSLEPEDFAVYYCQQRSNWPLTFGGGTKVEIKR', 'Kd', 0.234);

Would you mind telling me what Kd value was observed for 5B7 IgG expressed in HEK293 cells (antibody, V domains shown, also called 5B7 (293); 5B7-HEK293) VH: QVQLVQSGAEVKKPGASVKVSCKASGGTFSSYAISWVRQAPGQGLEWMGGIIPIFGTANYAQKFQGRVTITADKSTSTAYMELSSLRSEDTAVYYCARVDYDILTGYYMGYFDYWGQGTLVTVSS VL: DIVMTQSPATLSLSPGERATLSCRASQSVSSYLAWYQQKPGQAPRLLIYDASNRATGIPARFSGSGSGTDFTLTISSLEPEDFAVYYCQQRSNWPITFGQGTRLEIKR ?
0.062
